target: UniProtKB P0DTD1; test: biochemical; format: biochemical; design: unit not given here

compound: CNCC(O)c1ccc(O)c(O)c1.Cl (racemic) [(±)-Epinephrine hydrochloride]
Replicate_2: 1.4095

compound: Cl.c1ccc([C@H]2CN3CCSC3=N2)cc1 [(-)-Tetramisole hydrochloride]
Replicate_2: 1.236

compound: CC(C)NCC(O)COc1cccc2ccccc12.Cl (racemic) [(±)-Propranolol hydrochloride]
Replicate_2: 6.763

compound: CC(C)(C)C1(O)CCN2CC3c4ccccc4CCc4cccc(c43)C2C1.Cl (racemic) [(±)-Butaclamol hydrochloride]
Replicate_2: 5.727

compound: Cl.Nc1c2c(nc3ccccc13)CCCC2
Replicate_2: 0.8036

compound: O=C(O)CCC/C=C\C[C@@H]1[C@@H](/C=C/[C@H](O)C2Cc3ccccc3C2)[C@@H](F)C[C@@H]1O
Replicate_2: 1.148

compound: COc1ccc2c(c1)c(CC(=O)O)c(C)n2C(=O)c1ccc(Cl)cc1
Replicate_2: 1.395

compound: Cl.O=S(=O)(c1cccc2c(Cl)cccc12)N1CCCNCC1
Replicate_2: 4.79

compound: O=C(O)CN(CCOCCOCCN(CC(=O)O)CC(=O)O)CC(=O)O
Replicate_2: 0.4872

FYI, the data here is from paper PMC7587356.
